Molecular target: T1, human TL1A extracellular domain with N-terminal HIS and FLAG tag (human, UniProt O95150 72-251)
T1 construct: whole entry named. ~70 kDa fraction purified by gel filtration
T1 sequence: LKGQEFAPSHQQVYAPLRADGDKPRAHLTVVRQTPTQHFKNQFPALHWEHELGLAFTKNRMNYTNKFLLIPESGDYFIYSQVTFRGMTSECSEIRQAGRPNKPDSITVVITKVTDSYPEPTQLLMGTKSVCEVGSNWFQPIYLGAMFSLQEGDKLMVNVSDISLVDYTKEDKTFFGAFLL
Test: SPR run 3; supernatant on Protein A; TL1A 10 ug/mL; timepoint 59
VALUE TYPE: TL1A Binding Level (Early) (RU)
State the answer as a number, implicitly in RU.

Study these solved cases before continuing.
>>> result_value("320-264 (antibody, human IgG1, name in Kabat numbering, V domains shown, human IgG1, lambda) VH: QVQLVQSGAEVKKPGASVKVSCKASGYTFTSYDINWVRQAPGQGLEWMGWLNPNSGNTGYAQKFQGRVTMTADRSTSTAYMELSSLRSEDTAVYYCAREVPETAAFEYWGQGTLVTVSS VL: QSVLTQPPSVSGAPGQRVTISCTSSSSDIGLGLGVHWYQQLPGTAPKLLIEGYYNRPSGVPDRFSGSKSGTSASLTITGLLPEDEGDYYCQSYDGTLSALFGGGTKLTVLG")
199
>>> result_value("320-307 (antibody, human IgG1, name in Kabat numbering, V domains shown, human IgG1, lambda) VH: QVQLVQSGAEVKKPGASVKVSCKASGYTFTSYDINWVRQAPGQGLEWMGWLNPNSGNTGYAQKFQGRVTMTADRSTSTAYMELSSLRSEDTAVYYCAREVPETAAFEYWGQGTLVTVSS VL: QSVLTQPPSVSGAPGQRVTISCTSSSSDIGAGLGVLWYQQLPGTAPKLLIEGYYNRPSGVPDRFSGSKSGTSASLTITGLLPEDEGDYYCQSYDGTLSALFGGGTKLTVLG")
216

// switching to the query binder
**Q:** Give TL1A Binding Level (Early) for the following binder: 320-298 (antibody, human IgG1, name in Kabat numbering, V domains shown, human IgG1, lambda) VH: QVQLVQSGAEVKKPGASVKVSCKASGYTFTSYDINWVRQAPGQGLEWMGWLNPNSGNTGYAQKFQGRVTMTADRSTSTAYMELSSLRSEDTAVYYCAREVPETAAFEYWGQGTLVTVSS VL: QSVLTQPPSVSGAPGQRVTISCTSSSSDIGAGLGKHWYQQLPGTAPKLLIEGYYNRPSGVPDRFSGSKSGTSASLTITGLLPEDEGDYYCQSYDGTLSALFGGGTKLTVLG
**A:** 114
